experimental target: SARS-CoV-2 nucleocapsid protein (NP) (Severe acute respiratory syndrome …, UniProt P0DTC9)
measurement protocol: BLI
Listed next: entries and their corresponding Kd.
Write it as a number; the unit nM goes unstated.

binder | units label | Kd
12H8 scFv-Fc antibody (scFv, V domains shown) VH: AVTLDESGGGLQTPGGGLSLVCKASGFTFSNYGMDWVRQAPGKGLEWVAGIDNDGSGRGYGAAVKGRATISRDNGQSTVRLQLNNLRAEDTATYYCAKSTYGGRGCCDTTDAWGHGTEVIVSS VL: LTQPSSVSANPGETVKITCSGGGSWYGWFQQKSPGSAPVTVINANTNRPSDIPSRFSGSKSGSTGTLTITGVQADDEAVYFCGSYDSSTDSGIFGAGTTLTVL | nM | 1.31

Prompt line: Give the value of Kd reported for the following: 12H1 scFv-Fc antibody (scFv, V domains shown) VH: AVTLDESGGGLQTPGGTLSLVCKASGFTFSDRGMHWVRQAPGKGLEWVAGIRGDGSYTDYAPAVKGRATISRDNGQSTVRLQLNNLRAEDTATYYCAKSSYKCSTWSCRGYESDSIDAWGHGTEVIVSS VL: LTQPSSVSANLGGTVKMTCSGGSSGYGWYQQKSPGSAPVTLIYYNDKRPSGIPSRFSGSKSDSTGTLTITGVQAEDEAVYYCGNTDSSYVGMFGAGTTLTVL
Response line: 18.3

Prompt line: Give the value of Kd reported for the following: 1G5 scFv-Fc antibody (scFv, V domains shown) VH: AVTLDESGGGLQTPGGALSLVCKASGFTFSSYGMFWVRQAPGKGLEFVASITNTGSYTTYGAAVEGRATISRDNGQSTVRLQLNNLRAEDTAIYYCAKTSCNNCGWSGPGYIDAWGHGTEVIVSS VL: LTQPSSVSANLGGTVKITCSGGGNDYGWYQQKAPGSAPVTVINTNDKRPSDIPSRFSGSKSGSTATLTITGVQAEDEAVYFCGAYDSSTSADIFGAGTTLTVL
Response line: 2.86

Prompt line: Give the value of Kd reported for the following: 12B3 scFv-Fc antibody (scFv, V domains shown) VH: AVTLDESGGGLRTPRGALSLVCKASGFSFSDHGMAWVRQAPGKGLEWVAGISSGGSGTEYGAAVKGRATISRDNGQSTVRLQLNNLRAEDTGTYYCAKTTSPYCGWSGSLDYDCGAEDIDAWGHGTEVIVSS VL: LTQPSSVSANLGETVKITCSGDSNYYGWYQQKSPGSAPVTVIYDNAKRPSNIPSRFSGSKSGSTNTLTITGVQAEDEAVYFCGGWDSDTGTFGAGTTLTVL
Response line: 8.47
